Entry source: a melting point compilation (Tetko et al.; mined from patent text by program, amines drawn as free bases though some values may be those of a salt)

MEASUREMENT_KIND: melting point

// worked examples, melting point included
- N#Cc1cc(C(F)(F)F)[nH]c1-c1ccc(Br)o1: 224 to 226 °C
- O=c1c2c(nc3ccc(Cl)cn13)C(=Cc1ccccc1Cl)CC2: 249 to 250 °C
- CC(C)(C)OCc1cccc(-c2ccc3nc(-c4cccnc4)cn3c2)c1: 220 to 222 °C
- CC(C)(C)N(Cc1ccccc1)CC(O)c1ccc(OCc2ccccc2)c2[nH]c(CO)cc12 (stereo not given): 136 °C
- Cc1nc(-n2ccc(OCCC3CC3)cc2=O)sc1C(=O)NCc1ccccc1: 172 to 174 °C

Please give the documented melting point of CCOC(=O)CC(=O)NC(Cc1ccccc1)C(C)=O (stereo not given) 68 to 69 °C

Check the records and state melting point for COc1cc(-n2nc(C#N)cc2-c2ccc(S(C)(=O)=O)cc2)ccc1F 169 to 171 °C

# return recorded melting point for input CC1(C)Cc2ccccc2C1c1cnccc1C(=O)O (stereo not given) 254 to 257 °C

Quick one: give measured melting point for O=C(NCc1ccccc1)c1ccccc1-c1ccccc1CNS(=O)(=O)c1cccc(C(F)(F)F)c1 126 °C

Give reported melting point value for C=CC(=O)NC(C)c1ccc(Cl)cc1 (stereo not given) 103 to 104 °C

----------
In this section we review reported melting point values for a set of molecules.

Solved entries (count: 4):
* CC1(C)Oc2ccc(Cl)cc2C(CS(=O)(=O)NCC(=O)NCCc2ccccc2)C1O (stereo not given) | 168 to 170 °C
* CCC(CCCN)Nc1cc(OC)c(OC)c2c(C)ccnc12 (stereo not given) | 136 to 137 °C
* CCOCCOc1ccc(-c2ccc3c(c2)C=C(C(=O)Nc2ccc(CN(C)C4CCOCC4)cc2)CCS3(=O)=O)cc1Cl | 203 to 205 °C
* CCCCC1=NC2(CCCC2)C(=O)N1Cc1ccc(-c2ccccc2S(=O)(=O)Nc2onc(C)c2C)c(CN2CCCC2=O)c1 | 95 to 100 °C

// next item, melting point requested
Please supply the value of reported melting point for the item Cc1nc(NN)nnc1-c1ccccc1 136 to 138 °C

----------
MEASUREMENT_KIND: melting point

Example entries begin here.
• O=C(Nc1ccc(Br)cc1)Nn1cnc2c(O)cccc2c1=O = 276 to 278 °C
• CCN1CC(=O)N(C(C)c2ccc(F)cc2)C1=S (stereo not given) = 93 to 95 °C
• CSC(C)(C(=O)O)c1cccc(Oc2ccccc2)c1 (stereo not given) = 87 to 88 °C
• Cc1cccc(-c2[nH]c(C(C)C)nc2-c2cccc(-c3ccc(S(C)(=O)=O)cc3)c2)n1 = 104 to 106 °C

# context switch: different compound, same melting point
Item CCOC(=O)c1cn2c3c(cc(I)cc3c1=O)OC(c1ccccn1)C2 (stereo not given) : provide melting point 224 to 225 °C

----------
Listed compounds paired with reported melting point

Previously resolved entries follow.
* C[C@@H](Nc1ncnc2ccncc12)c1ccccc1 | 138 °C
* CCCCC(=N)NC(=O)Nc1ccc(C)cc1 | 159 to 160 °C
* NC(=S)CCCc1ccc(Br)cc1 | 104 to 105 °C
* N#Cc1ncc(Cl)nc1C#N | 89 to 90 °C
* CCCCn1nnc2cc(C(O)c3ccsc3)ccc21 (stereo unspecified) | 80 °C
* CN1C(=O)N(c2ccccc2O)Cc2cnc(Nc3ccccc3)nc21 | 192 °C
* CC(=O)c1cc2c(s1)C(N1CCCC1=O)C(O)C(C)(C)O2 (stereo unspecified) | 102 to 106 °C
* CC(C)(C)OC(=O)NCCCCn1c(-c2ccccc2)nc2cnc3ccccc3c21 | 158 to 159 °C

Please report melting point for the following compound: O=C1Cc2ccccc2C(c2c(F)cccc2Cl)N1 (stereo unspecified) 249 to 252 °C

Recall and state the measured melting point for ON=Cc1ccc2c(c1)ncn2-c1cccc(N2CCCCC2)c1 . 213 to 214 °C

Read the entry CCN(CC)c1cccc2nc3n(c12)CC(=O)CCN3c1ccc(Cl)cc1Cl and write its reported melting point. 169 to 170 °C

----------
In this section we review reported melting point values for a set of compounds.

Observe how each entry below is paired with its result.
* OCc1cnc(-c2cccs2)s1 | 89 to 90 °C
* CN(CC(=O)N[C@@H](CCC(N)=O)C(N)=O)C(=O)OCc1ccccc1 | 186 to 196 °C
* CCOCC(=NNc1ccc(C(F)(F)F)cc1)C(=O)NCc1ccc(Cl)nc1 | 98 to 99 °C
* N#Cc1c(N2CCCCC2)cc(-c2ccc3ccc4cccc5ccc2c3c45)c2c1Cc1ccccc1-2 | 168 to 169 °C
* CN(Cc1cccc2c1CN(C1CCC(=O)NC1=O)C2=O)C(=O)Nc1cccc(Cl)c1 (stereo not given) | 193 to 195 °C
* O=C1C(=O)c2ccccc2C2=C1SCC1(CCCCC1)O2 | 194 to 195 °C
* O=C(CN1CCC(Cc2ccccc2)CC1)Nc1ccc2[nH]c(=O)oc2c1 | 210 to 212 °C
* N#CCS(=O)(=O)C=C1N(CCCN2CCCCC2)CCN1CCCN1CCCCC1 | 105 to 107 °C

Let me know recorded melting point for COc1cc2c(cc1C(F)(F)F)N(C(=O)Nc1ccc(C)c(-c3cnccc3C)c1)CC2 , thanks. 138 to 140 °C

State, in one line, measured melting point of Cn1nc(-c2ccc(F)cc2F)cc1C(F)(F)F 51 °C

----------
melting point values for the compounds below.

Recorded melting point, per entry:
* CN1CCC(C(=NNc2ccccc2)c2ccccc2F)CC1 | 131 to 134 °C
* CC(=O)c1ccncc1OC1SCC(O)C(O)C1O (stereo not given) | 163 °C
* CC(=O)n1[nH]c(=O)n(-c2ccccc2)c1=O | 215 to 218 °C
* CNC(=C[N+](=O)[O-])NCCSCc1nccc(NC(N)=NCC(F)(F)F)n1 | 154 to 157 °C
* N#Cc1c(N)ncc2c1-c1ccccc1C(c1ccc(Cl)cc1Cl)C2 (stereo not given) | 282 to 284 °C

Assign melting point to the following record: Cc1ccc2c(-c3cnc4[nH]cc(C(=O)N[C@H](C)C(=O)N5CC(C#N)C5)c4n3)nn(C)c2n1 275 to 285 °C

Return reported melting point. Input compound: O=C(O)Cc1cccc(C(=O)c2ccccc2)c1 101 to 103 °C

Given CCN(CC1(C(F)(F)F)c2cc(Cl)ccc2Nc2ncccc21)C(C)C (stereo not given) , respond with its melting point. 140 to 141 °C

Query melting point for CC(C)CC1(C(CCNC(=O)c2ccc(F)c(F)c2)C(=O)NO)CCN(CCc2ccccc2)C1=O (stereo not given) 132 to 134 °C

Specify melting point for CC(C(=O)O)c1ccc(N2C(=O)C3CCCCC3C2=O)cc1 (stereo not given) and stop. 224 to 226 °C

----------
Recorded melting point values for a group of compounds are listed next.

Consider the following illustrative entries.
- CC(NSC(=O)OC(C)(C)C)C(=O)n1c(=O)[nH]c2ccccc21 (stereo unspecified): 101 °C
- COc1ccc(N2CCN(Cc3coc4ccccc34)CC2)cc1: 110 to 112 °C
- COc1cc2nc(N3CCc4c(ncnc4N4CCOCC4)C3)[nH]c(=O)c2cc1OC: 288 to 290 °C

Now look at this one.
Tell me melting point reported for Cc1ccc(-c2ccc3c(c2)C=C(C(=O)Nc2ccc(C(O)c4ccccn4)cc2)CCO3)cc1 (stereo unspecified) 215 to 217 °C

----------
The reader will find reported melting point values listed item by item below.

Known melting point results, listed for orientation:
• CC(=O)OC1(C(=O)COC(=O)c2ccccc2)CCC2C3CC(C)C4=CC(=O)C=CC4(C)C3C(O)CC21C (stereo not given) = 136 to 138 °C
• CN1CC(=O)C(C)(C)CC1=O = 52 to 54 °C

Give the reported value of melting point for this record: COC(=O)c1cc(-n2cnnc2)c(C(F)(F)F)cc1NC(C)=O 180 to 184 °C

Supply recorded melting point for COC(=O)c1ccc(=O)n(Cc2ccc(-c3ccccc3)cc2)c1 here. 130 to 133 °C

----------
melting point: recorded values

* C1=C(CCc2ccccc2)CCN(Cc2n[nH]c3c2CCc2ccccc2-3)C1 | 173 to 174 °C
* CC(=O)OCSc1c(F)cc(-c2c(-c3ccccc3)noc2C)cc1F | 130 °C
* NC(=O)OCC(OC(N)=O)c1ccccc1Cl (stereo not given) | 167 to 169 °C
* COCc1cc(O)nc(C)n1 | 168 to 170 °C
* CN(C)C1=NC(=O)C(Cc2cccc(-c3ccc(O)c(C4(C)CCCCC4)c3)c2)S1 (stereo not given) | 108 to 110 °C
* C[C@@H](O)c1cc2cc(CN3CCOCC3)cc3c(=O)c(C(=O)NCc4ccc(Cl)cc4)cn1c23 | 75 to 79 °C

Give the measured melting point for CC(=O)C1=C(O)C(=C(C)Nc2cccc(NC(=O)C(O)CO)c2)C(=O)OC1=O (stereo not given) 218 °C

Given CN(C)CCNC(=O)Nc1ccc(-c2cnc(COCc3cc4ccccc4o3)o2)cc1 , respond with its melting point. 150 to 154 °C

Write down melting point measured for item O=C(NCCc1ncc(Cl)cc1Cl)c1ccccc1C(F)(F)F 118 °C

Using the record for O=c1ccc2cnc(Nc3ccccc3)nc2n1C1CCCC1 , state its measured melting point. 188 to 192 °C
